Below, each entry is listed with its recorded optical density.
- Test target: Mouse ACVR2A (mouse, UniProt P27038 20-135, limits assumed); note: test concentration or dose not given here
- Sequence (P27038 20-135 limits assumed): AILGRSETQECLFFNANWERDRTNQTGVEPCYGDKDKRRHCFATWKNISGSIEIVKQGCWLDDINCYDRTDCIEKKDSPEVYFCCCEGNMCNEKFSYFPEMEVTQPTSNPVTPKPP
- Test: ELISA
Kindly provide the numeric value in OD only, without the unit symbol.

{"Binder": "367_D09 (antibody, V domains shown, VH/VL only) VH: EVQLLESGGGLVQPGGSLRLSCAASGFTFDSYGMNWVRQAPGKGLEWVASINYNGGYKSYADSVKGRFTISRDNSKNTLYLQMNSLRAEDTAVYYCARGATWHDTHLDYWGQGTLVTVSS VL: DIQMTQSPSSLSASVGDRVTITCRASQSILTYLNWYQQKPGKAPKLLIYAATSLASGVPSRFSGSGSGTDFTLTISSLQPEDFATYYCQQSYDNPLTFGGGTKVEIK", "optical density (OD)": 2.04}

Query (binder): 375_C11 (antibody, V domains shown, VH/VL only) VH: EVQLLESGGGLVQPGGSLRLSCAASGFTFSSYSMNWVRQAPGKGLEWVSSINYNGGYTSYADSVKGRFTISRDNSKNTLYLQMNSLRAEDTAVYYCARGATWHDTHLDYWGQGTLVTVSS VL: DIQMTQSPSSLSASVGDRVTITCRASQSILSYVNWYQQKPGKAPKLLIYAATSRHSGVPSRFSGSGSGTDFTLTISSLQPEDFATYYCQQSYDTPLTFGGGTKVEIK ; field requested: optical density 3.61

What do you get for 365_C01 (antibody, V domains shown, VH/VL only) VH: EVQLLESGGGLVQPGGSLRLSCAASGFTFDSYGMNWVRQAPGKGLEWVSSINYNSGYKSYADSVKGRFTISRDNSKNTLYLQMNSLRAEDTAVYYCARSANWHDTHLDYWGQGTLVTVSS VL: DIQMTQSPSSLSASVGDRVTITCRASQSIVSYLNWYQQKPGKAPKLVIYAVTSRASGVPSRFSGSGSGTDFTLTISSLQPEDFATYYCQQSYESPLTFGGGTKVEIK ? 3.02
